The measured values listed here are drawn from patent US20230025880A1.

Assignment: determine reported pIC50 for the given molecules.
Target: human PDHK2 (hPDHK2) (Homo sapiens, UniProt Q15119)
Experiment: Inhibitory action of PDHK2 activity (residual PDH activity, NADH absorbance at 340 nm)
Conditions: PDH/hPDHK2 complex, PDHK reaction 45 min at room temperature
Give bare numbers, as −log10 of the molar value.

Example results:
>>> print(df.to_string())
                        structure_as_smiles  property  observed_measurement
0  Cc1nnc2n1C[C@H](C)n1c-2cnc1[C@@](C)(O)C(F)(F)F     pIC50                  7.92
1  C[C@H]1Cn2c(nnc2C2(F)CC2)-c2cnc([C@@](C)(O)C(F)(F)F)n21     pIC50                  8.07
2  C[C@H]1Cn2c(nnc2C(F)(F)c2ccc(C(F)(F)F)cn2)-c2cnc([C@@](C)(O)C(F)(F)F)n21     pIC50                  8.06
3  C[C@H]1Cn2nc(CO)cc2-c2cnc([C@@](C)(O)C(F)(F)F)n21     pIC50                  7.72

Would you mind listing pIC50 for each of the following molecules?
1. C[C@H]1Cn2c(nnc2C(F)(F)c2ccccc2Cl)-c2cnc([C@@](C)(O)C(F)(F)F)n21
2. C[C@H]1Cn2c(-c3ccc(F)cc3)nnc2-c2cnc([C@@](C)(O)C(F)(F)F)n21
3. C[C@H]1Cn2nc(OCCN3CCCC3=O)cc2-c2cnc([C@@](C)(O)C(F)(F)F)n21

Ans:
[8.13, 8.20, 7.85]
